test system: K562; experiment: relative cell viability (ATPlite) vs untreated control (fraction); higher = less toxic; details: 1 µM; 72 h
The reader will find reported relative cell viability values listed item by item below.

- compound: "COc1cc(SC)ccc1C(=O)N1CCC(Cc2ccccc2)CC1 [p38 MAP Kinase Inhibitor VI, JX401]"
  relative cell viability: 0.807
- compound: "Cc1nc2cc3nc(-c4cccs4)cnc3cc2n1C"
  relative cell viability: 0.343
- compound: "Cc1ccc(S(=O)(=O)/C=C/C#N)cc1"
  relative cell viability: 0.721
- compound: "CCN(CC)CCCCN1c2ccccc2Oc2ccc(Cl)cc21 [Akt Inhibitor X]"
  relative cell viability: 0.848
- compound: "O=C(Nc1cccc(Nc2nccc(Nc3cccc(C(F)(F)F)c3)n2)c1)C1CC1 [Aurora Kinase Inhibitor III]"
  relative cell viability: 0.892
- compound: "O=C(Nc1ccc(-c2cn[nH]c2)cc1)C1COc2ccccc2O1 (centres undefined) [Rho Kinase Inhibitor V]"
  relative cell viability: 0.824
- compound: "NC(=O)Nc1sc(-c2ccccc2)cc1C(N)=O [IKK-2 Inhibitor VI]"
  relative cell viability: 0.861
- compound: "O=C(c1cc2cc(O)ccc2[nH]1)c1cc2cc(O)ccc2[nH]1 [Flt-3 Inhibitor II]"
  relative cell viability: 0.461
- compound: "O=C(O)C=Cc1cc(Br)c(Br)c(Br)c1Br [Casein Kinase II Inhibitor III, TBCA]"
  relative cell viability: 0.988
